Source of measurements: patent US11447472B2

Procedure Text: Thermodynamic solubility, shake-flask method
Type: physicochemical
Settings: organic solvent or mixture, thermodynamic from solid; Ethanol; RT, 24 hours
Parameter: solubility at 24 h (µg/mL)
API: value field is a number in µg/mL; no unit string.

Q: If you can, please state the reported solubility at 24 h value of `Nc1ncn([C@H]2C[C@H](O)[C@@H](CO)S2)c(=O)n1` .
Result: 800

* * *

Procedure Text: in vivo
Settings: male, SD, rat, 2 mg/kg, Concentration (plasma), Mean
Parameter: concentration at 0.5 h

Q: If you can, please state the reported concentration at 0.5 h value of Nc1ncn([C@H]2C[C@H](O)[C@@H](CO)S2)c(=O)n1 [Form F, 5-Aza-4′-thio-2′-deoxycytidine] .
Result: 0.768 µg/mL

* * *

Settings: male, SD, rat, in vivo, 2 mg/kg
Parameter: AUClast/D, Mean (ng·h/mL per mg/kg)
API: value field is a number in ng·h/mL per mg/kg; no unit string.

Q: If you can, please state the reported AUClast/D, Mean value of Nc1ncn([C@H]2C[C@H](O)[C@@H](CO)S2)c(=O)n1 [Form F, 5-Aza-4′-thio-2′-deoxycytidine] .
Result: 2900

* * *

Procedure Text: Physical stability of solid forms under accelerated aging conditions (AAC, 25° C./60% RH, two days), HT-XRPD
Settings: text; two days
Parameter: conversion after storage at 25° C., 60% relative humidity

{"Compound": "Nc1ncn([C@H]2C[C@H](O)[C@@H](CO)S2)c(=O)n1 [Form G2, 5-Aza-4′-thio-2′-deoxycytidine]", "Result": "convert to Form A"}
{"Compound": "Nc1ncn([C@H]2C[C@H](O)[C@@H](CO)S2)c(=O)n1 [Form I, 5-Aza-4′-thio-2′-deoxycytidine]", "Result": "converts to Form A"}
{"Compound": "Nc1ncn([C@H]2C[C@H](O)[C@@H](CO)S2)c(=O)n1 [Form G1, 5-Aza-4′-thio-2′-deoxycytidine]", "Result": "convert to Form A"}
{"Compound": "Nc1ncn([C@H]2C[C@H](O)[C@@H](CO)S2)c(=O)n1 [Form J, 5-Aza-4′-thio-2′-deoxycytidine]", "Result": "converts to Form A"}

# input for lookup
Q: If you can, please state the reported conversion after storage at 25° C., 60% relative humidity value of Nc1ncn([C@H]2C[C@H](O)[C@@H](CO)S2)c(=O)n1 [Form E, 5-Aza-4′-thio-2′-deoxycytidine] .
Result: converts to Form A

* * *

Procedure Text: Pharmacokinetics of capsules in male SD rats
Settings: male, SD, rat, plasma, oral, 2 mg/kg, Concentration (plasma), Mean, 8 h, capsule, mean of two male SD rats
Parameter: concentration at 8 h (ng/mL)
API: value field is a number in ng/mL; no unit string.

Q: If you can, please state the reported concentration at 8 h value of `Nc1ncn([C@H]2C[C@H](O)[C@@H](CO)S2)c(=O)n1` .
Result: 178

* * *

Procedure Text: Thermodynamic solubility, shake-flask method
Type: physicochemical
Settings: organic solvent or mixture, thermodynamic from solid; Methanol; RT, 24 hours
Parameter: solubility at 24 h (µg/mL)
API: value field is a number in µg/mL; no unit string.

Q: If you can, please state the reported solubility at 24 h value of `Nc1ncn([C@H]2C[C@H](O)[C@@H](CO)S2)c(=O)n1` .
Result: 3600
